target_entity: murine FcγRIV (mouse)
experiment_description: SPR; Biacore T200; analysis of Fc-Fc receptor binding; who was immobilised and the conditions are not given
Reported Kd values follow for various binders
State just the number; it will be interpreted in nM.

INSERT INTO measurements (binder, experimental_endpoint, uom, recorded_result) VALUES
  ('Desferrioxamine-HuE71-IgG1-Afuco (antibody, V domains shown) VH: QVQLVQPGDELVKPGASVKLSCKASGYTFTSYWMQWVKQRPGQGLEWIGEINPSNGRTNYNEMFKSKAVLSVDKSVSTAYMQLSSLTAEDTAVYYCALYDGYYAMDYWGQGTLVTVSS VL: DIVMTQSPSSLAVSVGERVTMSCKSSQSLLYSSNQKNYLAWYQQKPGQSPKLLIYWASTRESGVPDRFSGSGSGTDFTLTISSVKAEDVALYYCQQYHSYPFTFGQGTKLEIK', 'Kd', 'nM', 219),
  ('HuE71-IgG1 (antibody, V domains shown) VH: QVQLVQPGDELVKPGASVKLSCKASGYTFTSYWMQWVKQRPGQGLEWIGEINPSNGRTNYNEMFKSKAVLSVDKSVSTAYMQLSSLTAEDTAVYYCALYDGYYAMDYWGQGTLVTVSS VL: DIVMTQSPSSLAVSVGERVTMSCKSSQSLLYSSNQKNYLAWYQQKPGQSPKLLIYWASTRESGVPDRFSGSGSGTDFTLTISSVKAEDVALYYCQQYHSYPFTFGQGTKLEIK', 'Kd', 'nM', 724),
  ('HuE71-IgG1-Afuco (antibody, V domains shown) VH: QVQLVQPGDELVKPGASVKLSCKASGYTFTSYWMQWVKQRPGQGLEWIGEINPSNGRTNYNEMFKSKAVLSVDKSVSTAYMQLSSLTAEDTAVYYCALYDGYYAMDYWGQGTLVTVSS VL: DIVMTQSPSSLAVSVGERVTMSCKSSQSLLYSSNQKNYLAWYQQKPGQSPKLLIYWASTRESGVPDRFSGSGSGTDFTLTISSVKAEDVALYYCQQYHSYPFTFGQGTKLEIK', 'Kd', 'nM', 227);

Here is the next item to consider.
Record summary for Desferrioxamine-HuE71-IgG1 (antibody, V domains shown) VH: QVQLVQPGDELVKPGASVKLSCKASGYTFTSYWMQWVKQRPGQGLEWIGEINPSNGRTNYNEMFKSKAVLSVDKSVSTAYMQLSSLTAEDTAVYYCALYDGYYAMDYWGQGTLVTVSS VL: DIVMTQSPSSLAVSVGERVTMSCKSSQSLLYSSNQKNYLAWYQQKPGQSPKLLIYWASTRESGVPDRFSGSGSGTDFTLTISSVKAEDVALYYCQQYHSYPFTFGQGTKLEIK : reported Kd = 539
